Entry source: ChEMBL document CHEMBL5154649

measurementNotes: Metabolic stability in human liver microsomes assessed as intrinsic clearance at 0.5 uM incubated for 30 mins by LC-MS/MS analysis
Format: ADME, Microsome
statedConditions: read-out: CLH
Reported microsomal CLint at 0.5 µM values follow for various compounds

{"compound": "O[C@@H](c1cc(C(F)(F)F)nc2c(C(F)(F)F)cccc12)[C@H]1CCCCN1 [(S,R)-MEFLOQUINE]", "microsomal CLint at 0.5 µM": "< 20 µL/min/mg"}
{"compound": "O[C@H](c1cc(C(F)(F)F)nc2c(C(F)(F)F)cccc12)[C@@H]1CCCCN1 [(R,S)-MEFLOQUINE]", "microsomal CLint at 0.5 µM": "< 20 µL/min/mg"}
{"compound": "COC[C@H](Cc1ccccc1)NC[C@@H](O)c1cc(C(F)(F)F)nc2c(C(F)(F)F)cccc12", "microsomal CLint at 0.5 µM": "> 1000 µL/min/mg"}

---

Tested on: Plasmodium falciparum
measurementNotes: Antiplasmodial activity against CQ-susceptible Plasmodium falciparum 3D7 assessed as inhibition of parasite growth measured after 48 hrs by SYBR Green 1 dye based fluorescence assay
Format: functional, organism-based
statedConditions: 3D7, 48 h
attributeMeasured: IC50 (nM)

{"compound": "CC(C)(CO)NC[C@H](O)c1cc(C(F)(F)F)nc2c(C(F)(F)F)cccc12", "measureUnit": "nM", "valueComparator": "=", "reportedValue": 99.3}
{"compound": "O[C@H](CN1CCN(CCN2CCN(C[C@@H](O)c3cc(C(F)(F)F)nc4c(C(F)(F)F)cccc34)CC2)CC1)c1cc(C(F)(F)F)nc2c(C(F)(F)F)cccc12", "measureUnit": "nM", "valueComparator": "=", "reportedValue": 726}
{"compound": "NCCCCCCCCCCCCNC[C@H](O)c1cc(C(F)(F)F)nc2c(C(F)(F)F)cccc12", "measureUnit": "nM", "valueComparator": "=", "reportedValue": 176}
{"compound": "O[C@H](CN1CCN(C[C@@H](O)c2cc(C(F)(F)F)nc3c(C(F)(F)F)cccc23)CC1)c1cc(C(F)(F)F)nc2c(C(F)(F)F)cccc12", "measureUnit": "nM", "valueComparator": "=", "reportedValue": 953}
{"compound": "O[C@@H](CN1CCN(CCN2CCN(C[C@H](O)c3cc(C(F)(F)F)nc4c(C(F)(F)F)cccc34)CC2)CC1)c1cc(C(F)(F)F)nc2c(C(F)(F)F)cccc12", "measureUnit": "nM", "valueComparator": "=", "reportedValue": 147}
{"compound": "OC[C@@H](Cc1ccccc1)NC[C@@H](O)c1cc(C(F)(F)F)nc2c(C(F)(F)F)cccc12 (single isomer, unassigned)", "measureUnit": "nM", "valueComparator": "=", "reportedValue": 35.6}
{"compound": "O[C@@H](CNCCCN1CCN(CCCNC[C@H](O)c2cc(C(F)(F)F)nc3c(C(F)(F)F)cccc23)CC1)c1cc(C(F)(F)F)nc2c(C(F)(F)F)cccc12", "measureUnit": "nM", "valueComparator": ">", "reportedValue": 1000}
{"compound": "COC[C@H](Cc1ccccc1)NC[C@H](O)c1cc(C(F)(F)F)nc2c(C(F)(F)F)cccc12", "measureUnit": "nM", "valueComparator": "=", "reportedValue": 17.4}
{"compound": "NCCCCCCCCCCCCNC[C@@H](O)c1cc(C(F)(F)F)nc2c(C(F)(F)F)cccc12", "measureUnit": "nM", "valueComparator": "=", "reportedValue": 23.9}
{"compound": "OC[C@@H](NC[C@H](O)c1cc(C(F)(F)F)nc2c(C(F)(F)F)cccc12)c1ccccc1", "measureUnit": "nM", "valueComparator": "=", "reportedValue": 104}
{"compound": "O[C@H](CNCCCN1CCN(CCCNC[C@@H](O)c2cc(C(F)(F)F)nc3c(C(F)(F)F)cccc23)CC1)c1cc(C(F)(F)F)nc2c(C(F)(F)F)cccc12", "measureUnit": "nM", "valueComparator": ">", "reportedValue": 1000}
{"compound": "C[C@H](CO)NC[C@@H](O)c1cc(C(F)(F)F)nc2c(C(F)(F)F)cccc12 (single isomer, unassigned)", "measureUnit": "nM", "valueComparator": "=", "reportedValue": 68.5}
{"compound": "O[C@H](CNCC1CC1)c1cc(C(F)(F)F)nc2c(C(F)(F)F)cccc12", "measureUnit": "nM", "valueComparator": "=", "reportedValue": 4.1}
{"compound": "NCCNC[C@@H](O)c1cc(C(F)(F)F)nc2c(C(F)(F)F)cccc12", "measureUnit": "nM", "valueComparator": ">", "reportedValue": 1000}
{"compound": "OCCNC[C@@H](O)c1cc(C(F)(F)F)nc2c(C(F)(F)F)cccc12", "measureUnit": "nM", "valueComparator": ">", "reportedValue": 1000}

---

measurementNotes: Selectivity index, ratio of IC50 for cytotoxicity against human HepG2 cells to IC50 for antiplasmodial activity against Plasmodium falciparum 3D7 infected in human erythrocytes by HRP2-ELISA
Format: toxicity, cell-based
statedConditions: read-out: Ratio IC50

{"recordSmiles": "O[C@@H](CNCC1CC1)c1cc(C(F)(F)F)nc2c(C(F)(F)F)cccc12", "selectivity ratio": 369}
{"recordSmiles": "OC[C@H](Cc1ccccc1)NC[C@@H](O)c1cc(C(F)(F)F)nc2c(C(F)(F)F)cccc12", "selectivity ratio": 188}
{"recordSmiles": "OC[C@@H](Cc1ccccc1)NC[C@H](O)c1cc(C(F)(F)F)nc2c(C(F)(F)F)cccc12", "selectivity ratio": 158}
{"recordSmiles": "O[C@@H](CNCCCC(F)(F)F)c1cc(C(F)(F)F)nc2c(C(F)(F)F)cccc12", "selectivity ratio": 130}
{"recordSmiles": "O[C@H](CNCC1CC1)c1cc(C(F)(F)F)nc2c(C(F)(F)F)cccc12", "selectivity ratio": 333}

---

measurementNotes: Selectivity index, ratio of IC50 for cytotoxicity against human HFF cells to IC50 for antiplasmodial activity against CQ-susceptible Plasmodium falciparum 3D7 by SYBR Green 1 dye based fluorescence assay
Type: toxicity, cell-based
statedConditions: HFF cells versus CQ-susceptible Plasmodium falciparum 3D7, read-out: Ratio IC50

{"recordSmiles": "O[C@@H](CNCCN1CCN(C(c2ccccc2)c2ccccc2)CC1)c1cc(C(F)(F)F)nc2c(C(F)(F)F)cccc12", "selectivity ratio": 308}

---

Reported selectivity ratio values follow for various molecules
measurementNotes: Selectivity index, ratio of IC50 for human HFF cells to IC50 for antiplasmodial activity against Plasmodium falciparum 3D7 infected in human erythrocytes by HRP2-ELISA
Format: toxicity, cell-based
statedConditions: read-out: Ratio IC50

{"molecule": "COC[C@H](Cc1ccccc1)NC[C@@H](O)c1cc(C(F)(F)F)nc2c(C(F)(F)F)cccc12", "selectivity ratio": 2970}
{"molecule": "OC[C@@H](Cc1ccccc1)NC[C@@H](O)c1cc(C(F)(F)F)nc2c(C(F)(F)F)cccc12 (single isomer, unassigned)", "selectivity ratio": 444}
{"molecule": "OC[C@@H](Cc1ccccc1)NC[C@H](O)c1cc(C(F)(F)F)nc2c(C(F)(F)F)cccc12", "selectivity ratio": 351}
{"molecule": "COC[C@H](Cc1ccccc1)NC[C@H](O)c1cc(C(F)(F)F)nc2c(C(F)(F)F)cccc12", "selectivity ratio": 1580}
{"molecule": "O[C@@H](CNCCNC(c1ccccc1)c1ccccc1)c1cc(C(F)(F)F)nc2c(C(F)(F)F)cccc12", "selectivity ratio": 881}

---

measurementNotes: Cytotoxicity against human HFF cells assessed as reduction in cell viability incubated for 72 hrs by MTT assay
Format: toxicity, cell-based
# strict inequality: IC50 at 72 h < 40 µM yields Criterion met, everything else yields Criterion not met

{"recordSmiles": "COC[C@H](Cc1ccccc1)NC[C@@H](O)c1cc(C(F)(F)F)nc2c(C(F)(F)F)cccc12", "class": "Criterion not met"}
{"recordSmiles": "OC[C@@H](Cc1ccccc1)NC[C@H](O)c1cc(C(F)(F)F)nc2c(C(F)(F)F)cccc12", "class": "Criterion met"}
{"recordSmiles": "O[C@@H](CNCCNC(c1ccccc1)c1ccccc1)c1cc(C(F)(F)F)nc2c(C(F)(F)F)cccc12", "class": "Criterion not met"}
{"recordSmiles": "O[C@H](CNCCNC(c1ccccc1)c1ccccc1)c1cc(C(F)(F)F)nc2c(C(F)(F)F)cccc12", "class": "Criterion met"}
{"recordSmiles": "O[C@@H](CNCCN1CCN(C(c2ccccc2)c2ccccc2)CC1)c1cc(C(F)(F)F)nc2c(C(F)(F)F)cccc12", "class": "Criterion met"}
{"recordSmiles": "O[C@H](CNCCN1CCN(C(c2ccccc2)c2ccccc2)CC1)c1cc(C(F)(F)F)nc2c(C(F)(F)F)cccc12", "class": "Criterion met"}

---

measurementNotes: Cytotoxicity against human HFF cells assessed as reduction in cell viability incubated for 72 hrs by MTT assay
Type: toxicity, cell-based
Reported IC50 at 72 h values follow for various molecules

{"molecule": "O[C@@H](CNCC1CC1)c1cc(C(F)(F)F)nc2c(C(F)(F)F)cccc12", "IC50 at 72 h [µM]": 48.4}
{"molecule": "O[C@@H](CNCCCC(F)(F)F)c1cc(C(F)(F)F)nc2c(C(F)(F)F)cccc12", "IC50 at 72 h [µM]": 14.6}
{"molecule": "COC[C@H](Cc1ccccc1)NC[C@H](O)c1cc(C(F)(F)F)nc2c(C(F)(F)F)cccc12", "IC50 at 72 h [µM]": 36.7}
{"molecule": "OC[C@H](Cc1ccccc1)NC[C@H](O)c1cc(C(F)(F)F)nc2c(C(F)(F)F)cccc12 (single isomer, unassigned)", "IC50 at 72 h [µM]": 53.7}
{"molecule": "O[C@H](CNCC1CC1)c1cc(C(F)(F)F)nc2c(C(F)(F)F)cccc12", "IC50 at 72 h [µM]": 18.5}
{"molecule": "OC[C@@H](Cc1ccccc1)NC[C@@H](O)c1cc(C(F)(F)F)nc2c(C(F)(F)F)cccc12 (single isomer, unassigned)", "IC50 at 72 h [µM]": 45.4}
{"molecule": "OC[C@H](Cc1ccccc1)NC[C@@H](O)c1cc(C(F)(F)F)nc2c(C(F)(F)F)cccc12", "IC50 at 72 h [µM]": 25.4}
{"molecule": "O[C@H](CNCCCC(F)(F)F)c1cc(C(F)(F)F)nc2c(C(F)(F)F)cccc12", "IC50 at 72 h [µM]": 35.6}
